The values you see were collected from patent US10941129B2.

Form field: IC50 (one value per entry).
assayed target: interaction between PD-1 and PD-L1 (Homo sapiens (Human), UniProt Q9NZQ7)
Sequence (Q9NZQ7 19-238): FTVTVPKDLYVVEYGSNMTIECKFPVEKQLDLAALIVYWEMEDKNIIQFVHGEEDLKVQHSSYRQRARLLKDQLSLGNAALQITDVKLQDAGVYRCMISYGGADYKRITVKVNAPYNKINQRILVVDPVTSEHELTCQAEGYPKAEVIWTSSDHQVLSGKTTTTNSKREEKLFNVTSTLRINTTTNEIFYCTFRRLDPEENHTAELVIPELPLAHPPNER
method notes: Cisbio PD-1/PD-L1 binding assay kit (HTRF)
study conditions: read-out: IC50, inhibitory activity at molecular level on the interaction between PD-1 and PD-L1
Give your result in nM as a bare value.

Here are 5 compounds together with their reported answers.
N#Cc1cccc(COc2cc(OCc3cccc(-c4ccccc4)c3Br)ccc2CN[C@@H](CO)C(=O)O)c1    29.4
N#Cc1cccc(COc2cc(OCc3cccc(-c4ccccc4)c3Br)ccc2CNCCO)c1    307
COc1ccc(-c2cccc(COc3ccc(CNCCNC(C)=O)c(OCc4cccc(C#N)c4)c3)c2Br)cc1OC    6650
N#Cc1cccc(COc2cc(OCc3cccc(-c4ccc5c(c4)OCCO5)c3Br)c(Cl)cc2CN2CCCC[C@H]2C(=O)O)c1    67.5
CSCC[C@H](NCc1ccc(OCc2cccc(-c3ccccc3)c2Br)cc1OCc1cccc(C#N)c1)C(=O)O    4590

IN: Reported IC50 for COc1ccc(-c2cccc(COc3ccc(CNCCO)c(OCc4cccc(C#N)c4)c3)c2Br)cc1OC : what is it?
OUT: 7870

IN: Reported IC50 for N#Cc1cccc(COc2cc(OCc3cccc(-c4ccccc4)c3Br)ccc2CN2CCC[C@H]2C(=O)O)c1 : what is it?
OUT: 59.2
